meta.source: patent US20170152245A1

I'd appreciate it if you could supply pIC50 values for the items below.
Test system: human platelet suspension
PROCEDURE TEXT: U46619-induced platelet aggregation in human platelet suspension
Format: cell-based
DETAILS: Homo sapiens, Platelet, U46619-induced aggregation, platelet suspension; read-out: P.S(U46619) IC50
Convention used: pIC50 is expressed as -log10 of the molar concentration.

query: Given Cc1ccc(Cn2c(-c3ccc(C)o3)nc3ccccc32)cc1 [Example 9] , state its recorded pIC50.
result: 5.33

query: Given COc1ccc2[nH]c(-c3ccc(C)o3)nc2c1 [Example 25] , state its recorded pIC50.
result: 4.35

query: Given Cc1ccc(-c2nc3cc(Cl)c(Cl)cc3n2Cc2ccc(F)cc2)o1 [Example 63] , state its recorded pIC50.
result: 5.57

query: Given COc1ccc2nc(-c3ccc(C)o3)n(Cc3ccccc3)c2c1 [Example 25a] , state its recorded pIC50.
result: 5.84

query: Given Cc1ccc(-c2nc3ccc(Cl)cc3n2Cc2ccc(Cl)cc2)o1 [Example 43a] , state its recorded pIC50.
result: 4.44

query: Given Cc1ccc(-c2nc3cc(Cl)c(Cl)cc3n2Cc2ccccc2Cl)o1 [Example 60] , state its recorded pIC50.
result: 4.37

query: Given COc1cccc(Cn2c(-c3ccc(C)o3)nc3cc(Cl)c(Cl)cc32)c1 [Example 62] , state its recorded pIC50.
result: 5.05

query: Given Cc1cccc(Cn2c(-c3ccc(C)o3)nc3ccc(F)cc32)c1 [Example 40b] , state its recorded pIC50.
result: 5.27

query: Given Cc1ccc(-c2nc3ccc(Cl)cc3n2Cc2ccccc2C)o1 [Example 53b] , state its recorded pIC50.
result: 5.49

query: Given COc1cccc(Cn2c(-c3ccc(C)o3)nc3ccc(Cl)cc32)c1 [Example 50b] , state its recorded pIC50.
result: 4.56

query: Given Cc1ccc(-c2nc3ccc(Cl)cc3n2Cc2ccccc2Cl)o1 [Example 45b] , state its recorded pIC50.
result: 5.12

query: Given Cc1ccc(-c2nc3cc(Cl)ccc3n2Cc2ccccc2F)o1 [Example 48a] , state its recorded pIC50.
result: 5.17

query: Given Cc1ccc(-c2nc3ccc(F)cc3n2Cc2ccccc2F)o1 [Example 38b] , state its recorded pIC50.
result: 5.57

query: Given Cc1ccc(-c2nc3cc(Cl)ccc3n2Cc2ccc(F)cc2)o1 [Example 46b] , state its recorded pIC50.
result: 5.02

query: Given Cc1ccc(-c2nc3ccc(C(=O)c4ccccc4)cc3n2Cc2ccc(F)cc2)o1 [Example 78] , state its recorded pIC50.
result: 4.59

query: Given Cc1cccc(Cn2c(-c3ccc(C)o3)nc3cc(Cl)c(Cl)cc32)c1 [Example 67] , state its recorded pIC50.
result: 5.19

query: Given Cc1ccc(-c2nc3ccccc3n2Cc2ccccc2F)o1 [Example 13] , state its recorded pIC50.
result: 4.88

query: Given Cc1ccc(-c2nc3cc(Cl)c(Cl)cc3n2Cc2ccccc2F)o1 [Example 65] , state its recorded pIC50.
result: 5.08

query: Given Cc1ccc(-c2nc3cc(Cl)c(Cl)cc3n2Cc2cccc(F)c2)o1 [Example 64] , state its recorded pIC50.
result: 5.76

query: Given Cc1ccc(-c2nc3cc(F)ccc3n2Cc2ccccc2C)o1 [Example 41a] , state its recorded pIC50.
result: 5.58

query: Given Cc1ccc(-c2nc3ccc(Cl)cc3n2Cc2ccccc2)o1 [Example 42a] , state its recorded pIC50.
result: 5.45

query: Given Cc1ccc(-c2nc3ccc(Cl)cc3n2Cc2ccc(F)cc2)o1 [Example 46a] , state its recorded pIC50.
result: 5.50

query: Given Cc1ccc(-c2nc3cc(Cl)c(Cl)cc3n2Cc2ccccc2)o1 [Example 54a] , state its recorded pIC50.
result: 5.16

query: Given Cc1ccc(-c2nc3cc(Cl)ccc3n2Cc2cccc(F)c2)o1 [Example 47a] , state its recorded pIC50.
result: 5.26

query: Given Cc1ccc(-c2nc3ccccc3n2Cc2ccncc2)o1 [Example 24] , state its recorded pIC50.
result: 4.84

query: Given Cc1ccc(-c2nc3ccc(F)cc3n2Cc2ccccc2)o1 [Example 30a] , state its recorded pIC50.
result: 5.17

query: Given Cc1ccc(-c2nc3cc(Cl)c(Cl)cc3n2Cc2cccc(Cl)c2)o1 [Example 59] , state its recorded pIC50.
result: 5.43

query: Given Cc1ccc(-c2nc3cc(Cl)ccc3n2Cc2ccccc2Cl)o1 [Example 45a] , state its recorded pIC50.
result: 4.33

query: Given Cc1ccc(-c2nc3ccc(C(=O)c4ccccc4)cc3n2Cc2ccccc2)o1 [Example 69a] , state its recorded pIC50.
result: 4.76

query: Given COc1ccc2c(c1)nc(-c1ccc(C)o1)n2Cc1cccc(C)c1 [Example 27b] , state its recorded pIC50.
result: 4.57
